System: OCI-AML2;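 note: after 48 h exposure read by CellTiter-Glo luminescence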
Test: cell viability relative to vehicle control; higher = less cytotoxic
Conditions: 10 µM; SRSF2 genotype: wt/wt
Where a name gives a salt, the structure may show the parent alone.
Give measured cell viability for each item. Keep answers brief.
Numbers only, in %.

Reference set (8 entries):
COc1cc(OC)cc(N(CCNC(C)C)c2ccc3ncc(-c4cnn(C)c4)nc3c2)c1
31.9
COc1cc(NC(=O)c2ccc(-c3ccc(Cl)cc3)o2)cc(OC)c1
92.8
CCCC(=O)Nc1ncnc2c1ncn2[C@@H]1O[C@@H]2COP(=O)(O)O[C@H]2[C@H]1OC(=O)CCC
97.7
C/C(=C\CO)CCC[C@H](C)CCC[C@H](C)CCCC(C)C
82.6
O=C(N/N=C/c1ccc(O)c(O)c1)c1cc2ccccc2cc1O
73
COc1ccc(/C=C/C(=O)c2c(O)cc(OC)cc2OC)cc1
74.3
C[C@]12C=CC(=O)C=C1CC[C@@H]1[C@@H]2C(=O)C[C@@]2(C)[C@H]1CC[C@]2(O)C(=O)CO
110
CO/N=C(\C(=O)N[C@@H]1C(=O)N2C(C(=O)O)=C(Cn3ccc(=N)n3CCO)CS[C@H]12)c1csc(N)n1 [Cefoselis sulfate]
96.8

Fill in cell viability for each of the 2 compounds listed.
1. COC(=O)N1CCN(Cc2cccc(NC(=O)Nc3ccc(C)nc3)c2F)CC1
2. O=C(Nc1ccccc1)c1cc([N+](=O)[O-])ccc1Cl

// result
[87.2, 91.8]

Fill in cell viability for each of the 3 compounds listed.
1. O=Cc1ccc(O[C@@H]2O[C@H](CO)[C@@H](O)[C@@H](O)[C@H]2O)cc1 [Helicide]
2. C[C@@H]1O[C@@H](OC[C@H]2O[C@@H](Oc3cc(O)c4c(=O)cc(-c5ccc(O)cc5)oc4c3)[C@H](O[C@@H]3O[C@@H](C)[C@H](O)[C@@H](O)[C@H]3O)[C@@H](O)[C@@H]2O)[C@H](O)[C@H](O)[C@H]1O
3. N#Cc1ccc(Oc2ccc3c(c2)COB3O)cc1

// result
1. 96.5
2. 108
3. 79.3

Fill in cell viability for each of the 4 compounds listed.
1. O=C1NC(=O)/C(=C/c2cccc(C(F)(F)F)c2)S1
2. CC=C1C(=O)C[C@H]2[C@@H]3CCC4=CC(=O)CC[C@]4(C)[C@H]3CC[C@]12C
3. COCCNC(=O)Nc1ccc2nc(-c3cccs3)c(-c3cccs3)nc2c1
4. CC(C(=O)O)c1ccc(-c2ccccc2)c(F)c1 (configuration not stated)

// result
1: 104; 2: 76.7; 3: 95.1; 4: 102
